Test system: AGE2 production by glyceraldehyde and bovine serum albumin
assay_text: Inhibition of AGE2 production by glyceraldehyde and serum albumin (ELISA with anti-AGE2 polyclonal antibody)
measurement_parameters: read-out: IC50 of inhibition of AGE2 production; 10 mM glyceraldehyde, 10 mg/ml bovine serum albumin, phosphate buffer pH 7.4, 37° C., 3 days
Peptide text beside a SMILES is read from it.
reported_property: pIC50
Friendly reminder that pIC50 comes from taking -log10 of the concentration in mol/L.

compound	reported_result
NCCCC[C@H](NC(=O)[C@H](CCCCN)NC(=O)[C@H](CCCCN)NC(=O)[C@@H](N)CCCCN)C(=O)O [Lys-Lys-Lys-Lys] (H-KKKK-OH)	3.21

Continue with the next compound.
q: Item N=C(N)NCCC[C@H](N)C(=O)O [Arg, reference compound] has what recorded pIC50?
a: 2.72

###

Tested on: AGE2 production by glyceraldehyde and bovine serum albumin
measurement_parameters: bovine, 3 days, pH 7.4
Peptide text beside a SMILES is read from it.
reported_property: IC50 (µM)
Quick reminder: number only, in µM, skip the unit.

compound	IC50 / µM
NCCCC[C@H](NC(=O)[C@@H](N)CCCCN)C(=O)O	560

Continue with the next compound.
q: Item NCCCC[C@H](NC(=O)[C@@H](N)CCCN=C(N)N)C(=O)O [Arg-Lys] (H-Arg-Lys-OH) has what recorded IC50?
a: 780

###

Tested on: AGE2 production by glyceraldehyde and bovine serum albumin
measurement_parameters: pH 7.4
reported_property: IC50 (µM)
Quick reminder: number only, in µM, skip the unit.

q: Item NCCCC[C@H](N)C(=O)O [Lys, reference compound] has what recorded IC50?
a: 2200
